Reference for the values: patent US20250115577A1

pIC50: −log10 of the molar value.
# pIC50 per entry for BCL-2 (Homo sapiens (Human))

// worked examples, pIC50 included
compound	pIC50
COc1ccccc1CN(C(=O)c1cc(-c2cc(OC)c(C(N)=O)cc2C(=O)N2Cc3ccccc3C[C@H]2CN2CCOCC2)n(C)c1C)c1ccc(Cl)cc1	7.30 to 8.00
COc1cccc(CN(C(=O)c2cc(-c3cc(C(F)F)c(Cl)cc3C(=O)N3Cc4ccccc4C[C@H]3CN3CCOCC3)n(C)c2C)c2ccc(C#N)cc2)c1C	< 7.30
N#Cc1ccccc1CN(C(=O)c1cc(-c2cc(Cl)ccc2C(=O)N2Cc3ccccc3C[C@H]2CN2CCOCC2)n2c1CCCC2)c1ccc(Cl)cc1	< 7.30
COc1cccc(CN(C(=O)c2cc(-c3cc(Cl)ccc3C(=O)N3Cc4ccccc4C[C@H]3CN3CCOCC3)n3c2CCCC3)c2ccc(O)cc2)c1C	≥ 8.30
COc1cccc(CN(C(=O)c2cc(-c3cc(Cl)c(F)cc3C(=O)N3Cc4ccccc4C[C@H]3CN3CCOCC3)n(C)c2C)c2ccc(C#N)cc2)c1C [Compound 73]	< 7.30

// next item, pIC50 requested
Q: Recorded pIC50 of COc1cccc(CN(C(=O)c2cc(-c3cc(Cl)c(F)cc3C(=O)N3Cc4ccccc4C[C@H]3CN3CCOCC3)n(C)c2C)c2ccc(C#N)cc2)c1C [Compound 29] , please.
Result: 7.30 to 8.00

====

# pIC50 per entry for BCL-2 (Homo sapiens (Human))
pIC50: −log10 of the molar value.

COc1cccc(CN(C(=O)c2cc(-c3cc(Cl)ccc3C(=O)N3Cc4ccccc4C[C@H]3CN3CCOCC3)n(C)c2C)c2ccc3[nH]ncc3c2)c1C 8.00 to 8.30
COc1cccc(CN(C(=O)c2cc(-c3cc(Cl)c(OC(F)F)cc3C(=O)N3Cc4ccccc4C[C@H]3CN3CCOCC3)n(C)c2C)c2ccc(O)cc2)c1C 8.00 to 8.30
Cc1c(C(=O)N(Cc2ccccc2C#N)c2ccc(O)cc2)cc(-c2cc(F)c(F)cc2C(=O)N2Cc3ccccc3C[C@H]2CN2CCOCC2)n1C 7.30 to 8.00
COc1ccccc1CN(C(=O)c1cc(-c2cc(F)ccc2C(=O)N2Cc3ccccc3C[C@H]2CN2CCOCC2)n(C)c1C)c1ccc(O)cc1 8.00 to 8.30
COc1ccccc1CN(C(=O)c1cc(-c2cc(C#N)ccc2C(=O)N2Cc3ccccc3C[C@H]2CN2CCOCC2)n(C)c1C)c1ccc(O)cc1 8.00 to 8.30

Q: Recorded pIC50 of COc1cccc(CN(C(=O)c2cc(-c3c(C)cc(Cl)cc3C(=O)N3Cc4ccccc4C[C@H]3CN3CCOCC3)n(C)c2C)c2ccc(O)cc2)c1C , please.
Result: < 7.30

Q: Please give the result for COc1cccc(CN(C(=O)c2cc(-c3cc([N+](=O)[O-])ccc3C(=O)N3Cc4ccccc4C[C@H]3CN3CCOCC3)n(C)c2C)c2ccc(O)cc2)c1C too.
Result: ≥ 8.30

Q: Please give the result for COc1cccc(CN(C(=O)c2cc(-c3cc(C(F)F)c(Cl)cc3C(=O)N3Cc4ccccc4C[C@H]3CN3CCOCC3)n(C)c2C)c2ccc(Cl)cc2)c1C too.
Result: < 7.30

Q: Please give the result for COc1cccc(CN(C(=O)c2cc(-c3cc(F)c(OC(F)F)cc3C(=O)N3Cc4ccccc4C[C@H]3CN3CCOCC3)n(C)c2C)c2ccc(C#N)cc2)c1C too.
Result: < 7.30

Q: Please give the result for COc1cc(-c2cc(C(=O)N(Cc3cccc(OC)c3C)c3ccc(Cl)cc3)c(C)n2C)c(C(=O)N2Cc3ccccc3C[C@H]2CN2CCOCC2)cc1C#N too.
Result: < 7.30
